Target: Induced myeloid leukemia cell differentiation protein Mcl-1 (Homo sapiens)
Assay: biochemical
Description: Binding affinity to PEST and transmembrane regions lacking N-terminal His6/MBP-tagged human MCl1 (172 to 327 residues) expressed in Escherichia coli Rosetta2(2DE3) pLysS cells assesed as inhibition of protein interaction with carboxyfluorescein-labeled 26-mer Noxa peptide by fluorescence polarization assay
pKi: −log10 of the molar value.
quantity-measured: pKi

Example compounds with recorded pKi:
Prompt: Entry O=C(/C=C/c1ccc(O)c(F)c1)c1ccc2c(c1)CCO2 has what pKi?
Response: < 4.30

Prompt: Entry O=C(/C=C/c1ccncc1)c1ccc(O)cc1 has what pKi?
Response: < 4.30

Prompt: Entry COc1cc2oc(-c3ccc(N)cc3)cc(=O)c2c(OC)c1OC has what pKi?
Response: < 4.30

Read the next record carefully.
Prompt: Entry COc1cc2oc(-c3ccccc3[N+](=O)[O-])cc(=O)c2c(OC)c1OC has what pKi?
Response: < 4.30

###

# pKi per entry
Target: Induced myeloid leukemia cell differentiation protein Mcl-1 (Homo sapiens, UniProt Q07820)
Sequence (Q07820 whole entry): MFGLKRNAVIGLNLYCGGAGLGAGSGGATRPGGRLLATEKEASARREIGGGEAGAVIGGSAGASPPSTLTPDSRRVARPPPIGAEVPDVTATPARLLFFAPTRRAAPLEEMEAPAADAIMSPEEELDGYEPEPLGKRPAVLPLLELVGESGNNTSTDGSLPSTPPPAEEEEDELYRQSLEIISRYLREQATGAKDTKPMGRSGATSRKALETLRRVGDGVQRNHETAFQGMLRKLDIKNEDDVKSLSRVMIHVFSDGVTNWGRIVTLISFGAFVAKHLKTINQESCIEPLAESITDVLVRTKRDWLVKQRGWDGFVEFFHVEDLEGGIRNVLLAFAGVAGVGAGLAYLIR
Test: biochemical
pKi: −log10 of the molar value.

Example molecules with recorded pKi:
Prompt: State its pKi on Induced myeloid leukemia cell differentiation protein Mcl-1 (Homo sapiens, UniProt Q07820): COc1cc(O)c(C(=O)/C=C/c2ccc(C(F)(F)F)cc2)c(OC)c1OC
Response: < 4.30

Prompt: State its pKi on Induced myeloid leukemia cell differentiation protein Mcl-1 (Homo sapiens, UniProt Q07820): COc1cc(C(=O)/C=C/c2ccc(O)cc2)c(O)c(OC)c1OC
Response: 4.40

Prompt: State its pKi on Induced myeloid leukemia cell differentiation protein Mcl-1 (Homo sapiens, UniProt Q07820): O=C(/C=C/c1cc(F)c(O)c(Cl)c1)c1ccncc1
Response: < 4.30

Prompt: State its pKi on Induced myeloid leukemia cell differentiation protein Mcl-1 (Homo sapiens, UniProt Q07820): COc1ccc(C(=O)/C=C/c2cc(F)c(O)c(Cl)c2)c(OC)c1OC
Response: 5.52

Prompt: State its pKi on Induced myeloid leukemia cell differentiation protein Mcl-1 (Homo sapiens, UniProt Q07820): c1cc2c(cc1[C@H]1OC[C@H]3[C@H]1CO[C@H]3c1ccc3c(c1)OCO3)OCO2
Response: 5.15

Others:
Prompt: State its pKi on Induced myeloid leukemia cell differentiation protein Mcl-1 (Homo sapiens, UniProt Q07820): COc1ccc(C(=O)/C=C/c2ccc(O)cc2)cc1
Response: < 4.30

Prompt: State its pKi on Induced myeloid leukemia cell differentiation protein Mcl-1 (Homo sapiens, UniProt Q07820): COc1ccc(/C=C/C(=O)c2ccc(O)cc2)c(O)c1
Response: < 4.30

Prompt: State its pKi on Induced myeloid leukemia cell differentiation protein Mcl-1 (Homo sapiens, UniProt Q07820): COc1cc2oc(-c3ccccc3N)cc(=O)c2c(OC)c1OC
Response: < 4.30

Prompt: State its pKi on Induced myeloid leukemia cell differentiation protein Mcl-1 (Homo sapiens, UniProt Q07820): COc1cc(/C=C/C(=O)c2ccc(OC)c(OC)c2OC)cc(Cl)c1O
Response: 5.70

Prompt: State its pKi on Induced myeloid leukemia cell differentiation protein Mcl-1 (Homo sapiens, UniProt Q07820): COc1cc2oc(-c3ccc(C(F)(F)F)cc3)cc(=O)c2c(OC)c1OC
Response: < 4.30

Prompt: State its pKi on Induced myeloid leukemia cell differentiation protein Mcl-1 (Homo sapiens, UniProt Q07820): COc1ccc(/C=C/C(=O)c2cc(OC)c(OC)c(OC)c2O)cc1
Response: < 4.30

###

Molecular target: Induced myeloid leukemia cell differentiation protein Mcl-1 (Homo sapiens, UniProt Q07820)
Test: biochemical
quantity-measured: Ki

Prompt: Entry COc1ccc(/C=C/C(=O)c2ccc(O)cc2)cc1 has what Ki?
Response: > 50 µM

Prompt: Entry COc1cc(C(=O)/C=C/c2ccc(C(F)(F)F)cc2)c(O)c(OC)c1OC has what Ki?
Response: > 50 µM

Prompt: Entry COc1cc(C(=O)/C=C/c2ccc([N+](=O)[O-])cc2)c(O)c(OC)c1OC has what Ki?
Response: > 50 µM

Others:
Prompt: Entry COc1cc(O)c(C(=O)/C=C/c2ccc([N+](=O)[O-])cc2)c(OC)c1OC has what Ki?
Response: > 50 µM

Prompt: Entry COc1ccc(C(=O)/C=C/c2cc(F)c(O)c(Cl)c2)cc1 has what Ki?
Response: 7 µM

Prompt: Entry O=C(/C=C/c1ccc(O)cc1)c1ccc2c(c1)CCO2 has what Ki?
Response: > 50 µM

Prompt: Entry COc1cc(C(=O)/C=C/c2ccc3c(c2)OCO3)c(O)c(OC)c1OC has what Ki?
Response: > 50 µM

Prompt: Entry C[C@@]12CC[C@@H]3[C@H](CCC4=CC(=O)CC[C@H]43)[C@H]1CC[C@H]2OC1(O)C(=O)c2ccccc2C1=O has what Ki?
Response: 12 µM

Prompt: Entry COc1cc(O)c(C(=O)/C=C/c2ccc(O)c(OC)c2)c(OC)c1 has what Ki?
Response: 21 µM

Prompt: Entry COc1ccc(C(=O)/C=C/c2ccncc2)c(O)c1 has what Ki?
Response: > 50 µM

###

Target: Induced myeloid leukemia cell differentiation protein Mcl-1 (Homo sapiens)
Experiment: biochemical
quantity-measured: pKi
The read-out pKi is expressed as -log10 of concentration in moles per litre.

Prompt: State its pKi on Induced myeloid leukemia cell differentiation protein Mcl-1 (Homo sapiens): COc1ccc(C(=O)/C=C/c2ccc(O)c(F)c2)c(OC)c1OC
Response: 4.55

Prompt: State its pKi on Induced myeloid leukemia cell differentiation protein Mcl-1 (Homo sapiens): COc1ccc(C(=O)/C=C/c2cccc(F)c2O)cc1
Response: 4.70

Read the next record carefully.
Prompt: State its pKi on Induced myeloid leukemia cell differentiation protein Mcl-1 (Homo sapiens): COc1ccc(C(=O)/C=C/c2cc(Cl)c(O)c(OC)c2)cc1
Response: 5.00
